# ASSAY METHOD TEXT: Pharmacokinetics of the seven cocktail probe drugs in blank control rats (Group C)
# CONDITION NOTES: rat, in vivo, po
Where Cmax equals or exceeds 1000 ng/mL, the correct label is true; where it does not, the label is false.

Asked: Test whether the compound "Cn1c(=O)c2[nH]cnc2n(C)c1=O" records Cmax of 1000 ng/mL or higher.
Given back: true

----------
# ASSAY METHOD TEXT: Pharmacokinetics of the seven cocktail probe drugs in blank control rats (Group C)
# CONDITION NOTES: rat, in vivo, po
Binarize AUC(0-inf) at 5000 ng·h/mL; below is T, at or above is F.

Worked set:
1) O=C(O)Cc1ccccc1Nc1c(Cl)cccc1Cl = F
2) COc1ccc2[nH]c([S+]([O-])Cc3ncc(C)c(OC)c3C)nc2c1 (stereo not drawn) = T

Asked: # strict comparison: is reported AUC(0-inf) < 5000 ng·h/mL? input = COCCc1ccc(OCC(O)CNC(C)C)cc1 (stereo not drawn)
Given back: F

Asked: Hello, I'm reviewing records and need to know if AUC(0-inf) of "C[C@]12CC[C@H]3[C@@H](CCC4=CC(=O)CC[C@@]43C)[C@@H]1CC[C@@H]2O" is below 5000 ng·h/mL. Could you check?
Given back: T

Asked: I wonder whether "Cn1c(=O)c2[nH]cnc2n(C)c1=O" has AUC(0-inf) below 5000 ng·h/mL. Can you tell?
Given back: F

Asked: In plain terms, does CC(NC(C)(C)C)C(=O)c1cccc(Cl)c1 (stereo not drawn) come in under 5000 ng·h/mL for AUC(0-inf)?
Given back: F

----------
For each of the molecules below, state its CL/F.
# ASSAY METHOD TEXT: Pharmacokinetics of the seven cocktail probe drugs in blank control rats (Group C)
# CONDITION NOTES: rat, in vivo, po
Answers are plain numbers, in mL/min/kg.

Illustrative cases are given below, each with its answer.
1) CC(NC(C)(C)C)C(=O)c1cccc(Cl)c1 (stereo not drawn) = 7.16
2) O=C(O)Cc1ccccc1Nc1c(Cl)cccc1Cl = 42.3
3) Cn1c(=O)c2[nH]cnc2n(C)c1=O = 7.75

Dear colleague, could you send me CL/F for each of the items below? Thanks.
1. C[C@]12CC[C@H]3[C@@H](CCC4=CC(=O)CC[C@@]43C)[C@@H]1CC[C@@H]2O
2. COCCc1ccc(OCC(O)CNC(C)C)cc1 (stereo not drawn)
3. COc1ccc2[nH]c([S+]([O-])Cc3ncc(C)c(OC)c3C)nc2c1 (stereo not drawn)

Given back:
1. 66.8
2. 26.3
3. 43.4

----------
# ASSAY METHOD TEXT: Pharmacokinetics of the seven cocktail probe drugs in blank control rats (Group C)
# CONDITION NOTES: rat, in vivo, po
Give measured half-life for each item. Keep answers brief.
One number for each entry, in h.

1) CC(NC(C)(C)C)C(=O)c1cccc(Cl)c1 (stereo not shown) [bupropion] = 18.7
2) C[C@]12CC[C@H]3[C@@H](CCC4=CC(=O)CC[C@@]43C)[C@@H]1CC[C@@H]2O [testosterone] = 11.1
3) O=C(O)Cc1ccccc1Nc1c(Cl)cccc1Cl [diclofenac] = 4.98

Field: next molecule
For reference, reported half-life for COCCc1ccc(OCC(O)CNC(C)C)cc1 (stereo not shown) [metoprolol] stands at 7.95
